# Tested on: LXRa:RXRa (NR concentration 270 nM, RXRa partner concentration 90 nM)
# EXPERIMENT NOTES: PBM binding z-score (relative to random genomic background probes); higher = stronger binding; sequences stand for … in GC…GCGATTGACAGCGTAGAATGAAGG
Would you mind labelling by PBM binding z-score? At or over 3 is Fulfilled, under is Not fulfilled.

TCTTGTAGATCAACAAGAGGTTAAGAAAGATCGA	Not fulfilled
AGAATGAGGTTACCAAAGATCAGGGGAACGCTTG	Fulfilled
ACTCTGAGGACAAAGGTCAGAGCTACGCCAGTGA	Fulfilled
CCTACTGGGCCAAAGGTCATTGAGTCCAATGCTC	Fulfilled
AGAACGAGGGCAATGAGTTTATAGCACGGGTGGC	Not fulfilled
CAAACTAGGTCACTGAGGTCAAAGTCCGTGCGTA	Fulfilled
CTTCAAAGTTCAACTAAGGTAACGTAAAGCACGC	Fulfilled
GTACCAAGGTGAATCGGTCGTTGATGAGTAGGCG	Not fulfilled
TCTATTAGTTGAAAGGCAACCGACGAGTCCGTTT	Not fulfilled
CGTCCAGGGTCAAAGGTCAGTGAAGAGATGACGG	Fulfilled
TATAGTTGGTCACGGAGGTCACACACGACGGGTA	Fulfilled
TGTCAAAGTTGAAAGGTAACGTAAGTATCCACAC	Not fulfilled
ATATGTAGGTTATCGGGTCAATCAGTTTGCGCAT	Fulfilled
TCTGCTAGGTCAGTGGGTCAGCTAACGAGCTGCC	Not fulfilled
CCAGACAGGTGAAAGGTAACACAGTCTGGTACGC	Not fulfilled
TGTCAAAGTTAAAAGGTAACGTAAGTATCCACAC	Not fulfilled
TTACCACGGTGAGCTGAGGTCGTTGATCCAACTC	Not fulfilled
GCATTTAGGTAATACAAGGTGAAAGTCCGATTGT	Not fulfilled
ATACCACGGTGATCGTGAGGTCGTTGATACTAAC	Not fulfilled
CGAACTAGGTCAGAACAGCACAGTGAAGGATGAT	Not fulfilled
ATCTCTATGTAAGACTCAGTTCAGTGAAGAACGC	Not fulfilled
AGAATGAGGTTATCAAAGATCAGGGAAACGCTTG	Fulfilled
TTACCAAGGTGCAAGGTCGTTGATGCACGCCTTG	Not fulfilled
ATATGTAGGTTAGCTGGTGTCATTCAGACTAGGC	Not fulfilled
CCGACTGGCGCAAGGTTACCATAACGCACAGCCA	Not fulfilled
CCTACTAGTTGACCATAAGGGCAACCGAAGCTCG	Not fulfilled

Cited source for all entries: the supplement of paper PMC6555819
